Procedure Details: in vivo
Condition Context: female, Beagle, dog, iv, 5 mg/kg
Readout Kind: half-life (h)
Answers are plain numbers, in h.

Please give measured half-life of the following entry: O=c1[nH]nc(-c2cn(C3CCNCC3)nn2)o1 [compound 5]
3.04

###

Procedure Details: Pharmacokinetic study in Wistar rats
Format: in vivo
Condition Context: male, Wistar, rat, in vivo, iv, 10 mg/kg
Readout Kind: Vd (L/kg)
Answers are plain numbers, in L/kg.

Please give measured Vd of the following entry: O=c1[nH]nc(-c2cn(C3CCNCC3)nn2)o1
6.65

###

Procedure Details: in vivo
Condition Context: female, Beagle, dog, iv, 5 mg/kg
Protocol: For the pharmacokinetic study in Beagle dogs, a total of 3 male and 3 female dogs were selected. They were acclimatized for 5 days before dosing and at the start of dosing, dogs were between 36 and 37 months old. […] Sterile water was also selected as a vehicle for injection of compound 5. […] A constant dose volume of 1 mL/kg body weight was administered, adjusted according to the most recently recorded body weight of each dog. A single dose of 5 mg/kg b. wt. was selected in the case of dogs. […]
Readout Kind: Cmax (ng/mL)
Numbers only, in ng/mL.

Please give measured Cmax of the following entry: O=c1[nH]nc(-c2cn(C3CCNCC3)nn2)o1 [compound 5]
15800

###

Procedure Details: Pharmacokinetic study in Wistar rats
Format: in vivo
Condition Context: male, Wistar, rat, in vivo, iv, 10 mg/kg
Readout Kind: Cmax (ng/mL)
One number for each entry, in ng/mL.

Please give measured Cmax of the following entry: O=c1[nH]nc(-c2cn(C3CCNCC3)nn2)o1
26300

###

Procedure Details: Pharmacokinetic study in Wistar rats
Type: in vivo
Condition Context: female, Wistar, rat, in vivo, iv, 10 mg/kg
Readout Kind: clearance
Just so you know, I need the unit written after the number.

Please give measured clearance of the following entry: O=c1[nH]nc(-c2cn(C3CCNCC3)nn2)o1
12.2 mL/min/kg

###

Procedure Details: in vivo
Condition Context: both, Beagle, dog, iv
Readout Kind: MTD at 7 days
Just so you know, I need the unit written after the number.

Please give measured MTD at 7 days of the following entry: O=c1[nH]nc(-c2cn(C3CCNCC3)nn2)o1
75 mg/kg

###

Procedure Details: Pharmacokinetic study in Wistar rats
Assay type: in vivo
Condition Context: male, Wistar, rat, in vivo, iv, 5 mg/kg
Readout Kind: Vd (L/kg)
Numbers only, in L/kg.

Please give measured Vd of the following entry: O=c1[nH]nc(-c2cn(C3CCNCC3)nn2)o1 [compound 5]
6.01

###

Procedure Details: Pharmacokinetic study in Wistar rats
Type: in vivo
Condition Context: female, Wistar, rat, in vivo, iv, 2.5 mg/kg
Protocol: A pharmacokinetic study was performed for compound 5 in Wistar rats and Beagle dogs. For rats, a total of 35 male and 35 female rats were used for the study. At initiation of the dosing, rats were 9 to 10 weeks old and the body weight variation among rats was within ±20% of the mean body weight for each sex. […] Food and filtered water were provided ad libitum. […] Individual doses were adjusted based on the most recent recorded body weight of each rat. […]
Readout Kind: AUC
Just so you know, I need the unit written after the number.

Please give measured AUC of the following entry: O=c1[nH]nc(-c2cn(C3CCNCC3)nn2)o1 [compound 5]
3630 ng·h/mL

###

Procedure Details: Pharmacokinetic study in Wistar rats
Format: in vivo
Condition Context: male, Wistar, rat, in vivo, iv, 2.5 mg/kg
Readout Kind: Cmax (ng/mL)
One number for each entry, in ng/mL.

Please give measured Cmax of the following entry: O=c1[nH]nc(-c2cn(C3CCNCC3)nn2)o1
8280
